- System: NCI-H460 lung
- test_description: NCI-60 one-dose screen, 48 h (100 = growth as untreated, 0 = no growth, -100 = all killed)
- particulars: 10 µM unless noted
This is part of a sample that, as a whole, favours compounds with a hit. Of some 83,000 tested, about 20% had one in any assay.
attribute_measured: growth (%)

[
  {
    "compound": "CCN(C(=O)CN1CCN(c2cc3c(cc2F)c(=O)c(C(=O)O)cn3CC)CC1)c1nc(-c2ccccc2)cs1",
    "target_or_system": "NCI-H460 lung",
    "attribute_measured": "growth",
    "data_value": 5.71
  },
  {
    "compound": "CC1=CC(=O)CC(C)(C)[C@@]1(O)/C=C/[C@@H](C)O",
    "target_or_system": "NCI-H460 lung",
    "attribute_measured": "growth",
    "data_value": 112
  },
  {
    "compound": "COc1ccc(/C=N\\NC(=O)c2ccncc2)cc1O",
    "target_or_system": "NCI-H460 lung",
    "attribute_measured": "growth",
    "data_value": 109
  },
  {
    "compound": "COc1cnc2c(c1)C(=O)c1c-2n(CCCN2CCCC2)c(=O)c2cc([N+](=O)[O-])ccc12",
    "target_or_system": "NCI-H460 lung",
    "attribute_measured": "growth",
    "data_value": -60.1
  },
  {
    "compound": "Nc1nc2c(c3ncccc13)C(c1cccc(Br)c1)Cc1ncccc1-2 (stereo not given)",
    "target_or_system": "NCI-H460 lung",
    "attribute_measured": "growth",
    "data_value": 10.6
  },
  {
    "compound": "O=C1Nc2ccccc2C12CC(c1ccccc1)=NN2 (stereo not given)",
    "target_or_system": "NCI-H460 lung",
    "attribute_measured": "growth",
    "data_value": 33.2
  },
  {
    "compound": "CCCN(CCC)CN(CCC)CCC",
    "target_or_system": "NCI-H460 lung",
    "attribute_measured": "growth",
    "data_value": 107
  },
  {
    "compound": "O=C(O)c1ccccc1Nc1cccc(S(F)(F)(F)(F)F)c1",
    "target_or_system": "NCI-H460 lung",
    "attribute_measured": "growth",
    "data_value": 102
  },
  {
    "compound": "CCN(CC)CCC(=O)Nc1ccc(Cn2nnc3c2C(=O)c2nnn(Cc4ccc(NC(=O)CCN(CC)CC)cc4)c2C3=O)cc1",
    "target_or_system": "NCI-H460 lung",
    "attribute_measured": "growth",
    "data_value": -29.7
  },
  {
    "compound": "COc1ccc(-c2cc(-c3cccnc3)nc3sc4c(=O)n(-c5ccc(C)cc5)cnc4c23)cc1OC",
    "target_or_system": "NCI-H460 lung",
    "attribute_measured": "growth",
    "data_value": 101
  }
]

Data provenance is PubChem BioAssay (NCI).
